Reference for the values: patent US7074789B2

- Subject Of Test: AKT (Homo sapiens, UniProt Q9Y243)
- Construct: Kinases are expressed as either kinase domains or full length constructs; made in house
- Sequence (Q9Y243 whole entry, the tested form may be a part): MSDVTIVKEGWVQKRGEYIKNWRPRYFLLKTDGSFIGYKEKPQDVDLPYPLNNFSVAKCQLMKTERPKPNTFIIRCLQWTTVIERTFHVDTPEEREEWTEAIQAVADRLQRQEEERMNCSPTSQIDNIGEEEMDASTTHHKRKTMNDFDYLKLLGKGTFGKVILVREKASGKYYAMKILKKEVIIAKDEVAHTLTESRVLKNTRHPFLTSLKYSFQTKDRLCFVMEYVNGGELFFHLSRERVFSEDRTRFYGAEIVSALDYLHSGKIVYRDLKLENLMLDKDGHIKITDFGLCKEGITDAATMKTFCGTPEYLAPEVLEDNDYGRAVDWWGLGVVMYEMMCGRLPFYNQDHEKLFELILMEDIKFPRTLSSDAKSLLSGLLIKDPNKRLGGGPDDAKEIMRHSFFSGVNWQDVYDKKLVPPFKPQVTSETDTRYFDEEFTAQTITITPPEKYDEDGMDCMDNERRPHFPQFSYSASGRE
- Assay Procedure: Kinase inhibition assay (33P transfer), AKT
- Format: biochemical
- Applied Conditions: Table 2, kinase inhibition class; read-out: AKT3-1
The entries below come with measured IC50 values attached.

{"Compound": "COc1cc(Nc2ncnc(-n3c(=O)[nH]c4ccccc43)n2)cc(OCCN2CCOCC2)c1OC", "Subject Of Test": "AKT (Homo sapiens, UniProt Q9Y243)", "IC50": "> 9.12 µM"}

Give its IC50 value. Item: COC(=O)C(c1ccccc1)c1ncnc(Nc2cc(OC)c(OC)c(OC)c2)n1 (stereo not shown)
> 11 µM

Any idea what its IC50 is? The compound is COc1cc(Nc2ncnc(-n3c(Nc4ccc(C(C)C)cc4)nc4ccccc43)n2)cc(OC)c1OC
> 8.8 µM

So what's the measured IC50 for this one? COc1cc(Nc2ncnc(-n3c(NCCCCO)nc4ccccc43)n2)cc(OC)c1OC
> 9.67 µM

====

- Subject Of Test: AKT (Homo sapiens, UniProt Q9Y243)
- Construct: Kinases are expressed as either kinase domains or full length constructs; made in house
- Assay Procedure: Kinase inhibition assay (33P transfer), AKT
- Format: biochemical
- Applied Conditions: Table 2, kinase inhibition class; read-out: AKT3-1
Property: IC50; scope: individual molecules

// known answers, use as guide
{"Smiles Text": "NC(=O)Cc1ccc(Nc2ncnc(Nc3cc(-c4ccccc4)n[nH]3)n2)cc1", "Experimental Value": "6.21 to 9.06 µM"}
{"Smiles Text": "CN(c1cccc(Cl)c1)c1ncnc(Nc2ccc(NC(=O)OC(C)(C)C)cc2)n1", "Experimental Value": "> 10.5 µM"}
{"Smiles Text": "O=c1[nH]c2ccccc2n1-c1ncnc(Nc2ccncc2)n1", "Experimental Value": "> 14.7 µM"}
{"Smiles Text": "O=[N+]([O-])c1cccc(Nc2ncnc(-c3cccs3)n2)c1", "Experimental Value": "> 15 µM"}
{"Smiles Text": "FC(F)C(F)(F)Oc1cccc(Nc2ncnc(-c3cccs3)n2)c1", "Experimental Value": "> 12.2 µM"}
{"Smiles Text": "COc1ccc2c(c1)CCCN2c1ncnc(Nc2cc(OC)c(OC)c(OC)c2)n1", "Experimental Value": "> 10.6 µM"}
{"Smiles Text": "CCc1ccc(Nc2ncnc(-n3c(N)nc4ccccc43)n2)cc1", "Experimental Value": "7.24 to 10.6 µM"}
{"Smiles Text": "CN(C)c1ccc(Nc2ncnc(-n3c(N)nc4ccccc43)n2)cc1", "Experimental Value": "> 13 µM"}

I am curious: what IC50 value has been reported for Nc1nc2ccccc2n1-c1ncnc(Nc2ccc(-c3ccccc3)cc2)n1 ?
1.05 to 6.33 µM

Look up IC50: COc1cc(C)c(Nc2ncnc(Nc3cc(-c4ccccc4)n[nH]3)n2)cc1OC
> 11.2 µM

// IC50 lookup, key: COc1cc(Nc2ncnc(-c3ccc(NCc4ccccc4)nc3)n2)cc(OC)c1OC
> 10.1 µM

====

Attribute: pIC50
- Subject Of Test: EGFR (Homo sapiens, UniProt P00533)
- Construct: Kinases are expressed as either kinase domains or full length constructs; made in house
- Sequence (P00533 25-1210, species assumed): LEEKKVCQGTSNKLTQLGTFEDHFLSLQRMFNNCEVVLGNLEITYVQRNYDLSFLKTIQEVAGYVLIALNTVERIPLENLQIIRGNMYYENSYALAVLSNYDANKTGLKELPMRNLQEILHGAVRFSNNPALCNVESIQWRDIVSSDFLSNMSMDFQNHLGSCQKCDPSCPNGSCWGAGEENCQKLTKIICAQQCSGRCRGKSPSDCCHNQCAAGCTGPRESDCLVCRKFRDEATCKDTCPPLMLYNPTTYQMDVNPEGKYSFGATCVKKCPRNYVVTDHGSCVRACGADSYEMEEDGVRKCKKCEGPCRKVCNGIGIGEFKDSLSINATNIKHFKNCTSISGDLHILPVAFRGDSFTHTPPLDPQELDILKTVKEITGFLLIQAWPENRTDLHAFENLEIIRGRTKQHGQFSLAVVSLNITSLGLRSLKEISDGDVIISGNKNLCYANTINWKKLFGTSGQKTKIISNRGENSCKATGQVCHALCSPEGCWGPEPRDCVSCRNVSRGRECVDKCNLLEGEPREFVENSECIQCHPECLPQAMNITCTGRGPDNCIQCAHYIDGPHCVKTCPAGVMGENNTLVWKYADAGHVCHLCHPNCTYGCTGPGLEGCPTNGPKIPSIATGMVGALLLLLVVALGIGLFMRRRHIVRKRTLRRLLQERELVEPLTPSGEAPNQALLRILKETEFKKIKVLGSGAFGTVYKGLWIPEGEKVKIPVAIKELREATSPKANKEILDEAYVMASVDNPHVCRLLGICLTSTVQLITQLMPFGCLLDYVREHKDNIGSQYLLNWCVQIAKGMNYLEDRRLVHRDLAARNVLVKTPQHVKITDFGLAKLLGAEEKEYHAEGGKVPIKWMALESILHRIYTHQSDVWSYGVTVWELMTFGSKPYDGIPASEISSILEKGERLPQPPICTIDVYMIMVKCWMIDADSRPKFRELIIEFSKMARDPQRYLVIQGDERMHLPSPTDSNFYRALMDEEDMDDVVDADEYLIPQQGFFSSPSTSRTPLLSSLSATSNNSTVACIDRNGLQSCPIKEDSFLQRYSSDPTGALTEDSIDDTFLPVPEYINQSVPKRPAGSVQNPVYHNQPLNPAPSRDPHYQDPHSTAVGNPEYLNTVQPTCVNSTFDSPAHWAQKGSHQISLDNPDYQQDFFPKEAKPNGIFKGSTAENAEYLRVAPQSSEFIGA
- Assay Procedure: Kinase inhibition assay (33P transfer), EGFR
- Assay type: biochemical
- Applied Conditions: Table 2, kinase inhibition class; read-out: EGFR-1
pIC50: −log10 of the molar value.

Some solved cases for reference:
{"Molecule": "COc1cc(Nc2ncnc(-n3c(Nc4ccccc4C)nc4ccccc43)n2)cc(OC)c1OC", "Experimental Value": "5.03 to 5.14"}
{"Molecule": "COCCOc1cc(Nc2ncnc(Nc3ccc(C)c(O)c3)n2)ccc1OC", "Experimental Value": "> 6.00"}
{"Molecule": "COc1cc(Nc2ncnc(-c3cccnc3N)n2)cc(OC)c1OC", "Experimental Value": "< 4.90"}
{"Molecule": "c1ccc(Cn2ncc3cc(Nc4ncnc(Nc5ccc(N6CCCCC6)cc5)n4)ccc32)cc1", "Experimental Value": "> 6.08"}
{"Molecule": "COc1cc(Nc2ncnc(N3c4ccccc4CC3C)n2)cc(OC)c1OC (stereo not drawn)", "Experimental Value": "5.21 to 5.99"}
{"Molecule": "COc1ccc(Nc2ncnc(N(CC(=O)OC(C)(C)C)c3ccc(Cl)cc3)n2)cc1OC", "Experimental Value": "5.29 to 6.07"}
{"Molecule": "COc1cc(OC)nc(Nc2ncnc(-n3c(=O)[nH]c4ccccc43)n2)n1", "Experimental Value": "< 4.91"}
{"Molecule": "COc1ccc(-c2cn[nH]c2Nc2ncnc(Nc3cc(OC)c(OC)c(OC)c3)n2)cc1OC", "Experimental Value": "5.03 to 5.14"}

So what's the measured pIC50 for this one? COc1cc(Nc2ncnc(-c3cccnc3Nc3cccc(C(N)=O)c3)n2)cc(OC)c1OC
< 5.02
